// values below are reported pEC50
Target: human GR (Homo sapiens)
Construct: naturally expresses the human GR; endogenous in cells
Sequence (P04150 1-777): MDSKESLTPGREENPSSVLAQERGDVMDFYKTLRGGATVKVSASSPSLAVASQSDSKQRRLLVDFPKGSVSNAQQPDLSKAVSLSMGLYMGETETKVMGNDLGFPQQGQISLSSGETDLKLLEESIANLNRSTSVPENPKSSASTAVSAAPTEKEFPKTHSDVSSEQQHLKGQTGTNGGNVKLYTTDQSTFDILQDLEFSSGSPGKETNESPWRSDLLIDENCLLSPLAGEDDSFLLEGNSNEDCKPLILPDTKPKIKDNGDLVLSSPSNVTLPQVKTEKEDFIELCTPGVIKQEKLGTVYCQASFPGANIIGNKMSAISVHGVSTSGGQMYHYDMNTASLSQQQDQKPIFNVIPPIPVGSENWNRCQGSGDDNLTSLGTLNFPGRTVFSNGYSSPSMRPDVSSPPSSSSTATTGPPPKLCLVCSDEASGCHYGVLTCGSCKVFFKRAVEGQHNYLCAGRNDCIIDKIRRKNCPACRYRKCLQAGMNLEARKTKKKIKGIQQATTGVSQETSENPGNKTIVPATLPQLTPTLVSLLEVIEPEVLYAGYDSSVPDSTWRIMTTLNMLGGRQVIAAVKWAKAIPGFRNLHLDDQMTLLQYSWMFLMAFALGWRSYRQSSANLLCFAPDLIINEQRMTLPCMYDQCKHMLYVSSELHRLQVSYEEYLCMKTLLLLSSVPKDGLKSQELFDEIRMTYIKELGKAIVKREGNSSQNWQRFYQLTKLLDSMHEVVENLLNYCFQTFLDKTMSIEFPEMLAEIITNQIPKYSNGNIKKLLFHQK
Test: Trans-Activation Modulation of Glucocorticoid Receptor Assay (GRAMMER), MMTV-LUC reporter in A549 cells
Format: cell-based
Settings: inflection point (IP), MMTV-LUC reporter, read-out: Transactivation A549 Cells GRAMMER IP
pEC50: −log10 of the molar value.

COMPOUND	pEC50
Cc1ccc(C(O)C[C@]2(CO)CCC3=Cc4c(cnn4-c4ccc(F)cc4)C[C@@]32C)cc1 (single isomer, unassigned) [Example 2b]	6.50
COc1cccnc1C(O)C[C@]1(CO)CCC2=Cc3c(cnn3-c3cccc(F)c3)C[C@@]21C (single isomer, unassigned) [Example 26a]	6.84
CC(O)(C[C@]1(CO)CCC2=Cc3c(cnn3-c3ccc(F)cc3)C[C@@]21C)c1cccnc1 (single isomer, unassigned) [Example 25a]	6.54
C[C@]12Cc3cnn(-c4ccc(F)cc4)c3C=C1CC[C@@]2(CO)CC(O)c1cccnc1 (single isomer, unassigned) [Example 15a]	7.17
C[C@]12Cc3cnn(-c4ccc(F)cc4)c3C=C1CC[C@@]2(CO)CC(O)c1cccc(Cl)c1 (stereo partly shown)	7.49
C[C@]12Cc3cnn(-c4ccc(F)cc4)c3C=C1CC[C@@]2(CO)CC(O)c1cccc(C(F)(F)F)c1 (single isomer, unassigned) [Example 7b]	7.41
CC(C)C(O)C[C@]1(CO)CCC2=Cc3c(cnn3-c3ccc(F)cc3)C[C@@]21C (single isomer, unassigned) [Example 14a]	6.32
C[C@]12Cc3cnn(-c4ccc(F)cc4)c3C=C1CC[C@@]2(CO)CC(O)c1ccc(F)cn1 (single isomer, unassigned) [Example 22b]	7.19
C[C@]12Cc3cnn(-c4ccc(F)cc4)c3C=C1CC[C@@]2(CO)CC1OC(=O)c2ccccc21 (stereo partly shown) [Example 11]	6.48
C[C@]12Cc3cnn(-c4ccc(F)cc4)c3C=C1CC[C@@]2(CO)CC(O)c1cc(F)cc(Cl)c1 (single isomer, unassigned) [Example 6b]	6.91
C[C@]12Cc3cnn(-c4ccc(F)cc4)c3C=C1CC[C@@]2(CO)CC1OC(=O)c2ccccc21 (single isomer, unassigned) [Example 12b]	7.48
COc1cccnc1C(O)C[C@]1(CO)CCC2=Cc3c(cnn3-c3ccc(F)cc3)C[C@@]21C (single isomer, unassigned) [Example 21b]	7.40
C[C@]12Cc3cnn(-c4ccc(F)cc4)c3C=C1CC[C@@]2(CO)CC(O)c1ncccc1F (single isomer, unassigned) [Example 10b]	7.91

----------
target: human GR (Homo sapiens, UniProt P04150); construct: naturally expresses the human GR; endogenous in cells; test: Trans-Activation Modulation of Glucocorticoid Receptor Assay (GRAMMER), MMTV-LUC reporter in A549 cells; format: cell-based; conditions: Emax relative to the activity obtained with 300 nM dexamethasone
VALUE TYPE: Transactivation A549 Cells GRAMMER Emax (%)

MOLECULE	TARGET	MEAS VALUE
Cc1cccc(C(O)C[C@]2(CO)CCC3=Cc4c(cnn4-c4ccc(F)cc4)C[C@@]32C)c1 (single isomer, unassigned) [Example 5b]	human GR (Homo sapiens, UniProt P04150)	58.4
C[C@]12Cc3cnn(-c4ccc(F)cc4)c3C=C1CC[C@@]2(CO)CC(O)c1cccnc1 (single isomer, unassigned) [Example 15b]	human GR (Homo sapiens, UniProt P04150)	39.3
C[C@]12Cc3cnn(-c4cccc(F)c4)c3C=C1CC[C@@]2(CO)CC(O)c1ccccn1 (single isomer, unassigned) [Example 19b]	human GR (Homo sapiens, UniProt P04150)	24.2
COc1cccnc1C(O)C[C@]1(CO)CCC2=Cc3c(cnn3-c3ccc(F)cc3)C[C@@]21C (single isomer, unassigned) [Example 21a]	human GR (Homo sapiens, UniProt P04150)	32.4
COc1cccnc1C(O)C[C@]1(CO)CCC2=Cc3c(cnn3-c3ccc(F)cc3)C[C@@]21C (single isomer, unassigned) [Example 21b]	human GR (Homo sapiens, UniProt P04150)	64.8
C[C@]12Cc3cnn(-c4cccc(F)c4)c3C=C1CC[C@@]2(CO)CC(O)c1cccnc1 (single isomer, unassigned) [Example 27b]	human GR (Homo sapiens, UniProt P04150)	15.4

----------
// values below are reported Emax
molecular target: human GR (Homo sapiens, UniProt P04150); construct: naturally expresses the human GR; endogenous in cells; assay: Trans-Activation Modulation of Glucocorticoid Receptor Assay (GRAMMER), MMTV-LUC reporter in A549 cells; assay type: cell-based; conditions: A549, Emax relative to the activity obtained with 300 nM dexamethasone, read-out: Transactivation A549 Cells GRAMMER Emax (%)
VALUE TYPE: Emax (%)

MOLECULE	UNIT LABEL	MEAS VALUE
C[C@]12Cc3cnn(-c4ccc(F)cc4)c3C=C1CC[C@@]2(CO)CC1OC(=O)c2ccccc21 (stereo partly drawn) [Example 11]	%	41.8
C[C@]12Cc3cnn(-c4ccccc4)c3C=C1CC[C@@]2(CO)CC(O)c1ccccn1 (single isomer, unassigned) [Example 23a]	%	39.4
C[C@]12Cc3cnn(-c4ccc(F)cc4)c3C=C1CC[C@@]2(CO)CC(O)c1ccncc1 (single isomer, unassigned) [Example 17a]	%	26.4
C[C@]12Cc3cnn(-c4ccc(F)cc4)c3C=C1CC[C@@]2(CO)CC(O)C1CCCCC1 (single isomer, unassigned) [Example 18a]	%	55.3
CC(O)(C[C@]1(CO)CCC2=Cc3c(cnn3-c3ccc(F)cc3)C[C@@]21C)c1cccnc1 (single isomer, unassigned) [Example 25a]	%	7.9
CC(C)C(O)C[C@]1(CO)CCC2=Cc3c(cnn3-c3ccc(F)cc3)C[C@@]21C (single isomer, unassigned) [Example 14a]	%	25

----------
Biological target: human GR (Homo sapiens)
Construct: naturally expresses the human GR; endogenous in cells
Sequence (P04150 1-777): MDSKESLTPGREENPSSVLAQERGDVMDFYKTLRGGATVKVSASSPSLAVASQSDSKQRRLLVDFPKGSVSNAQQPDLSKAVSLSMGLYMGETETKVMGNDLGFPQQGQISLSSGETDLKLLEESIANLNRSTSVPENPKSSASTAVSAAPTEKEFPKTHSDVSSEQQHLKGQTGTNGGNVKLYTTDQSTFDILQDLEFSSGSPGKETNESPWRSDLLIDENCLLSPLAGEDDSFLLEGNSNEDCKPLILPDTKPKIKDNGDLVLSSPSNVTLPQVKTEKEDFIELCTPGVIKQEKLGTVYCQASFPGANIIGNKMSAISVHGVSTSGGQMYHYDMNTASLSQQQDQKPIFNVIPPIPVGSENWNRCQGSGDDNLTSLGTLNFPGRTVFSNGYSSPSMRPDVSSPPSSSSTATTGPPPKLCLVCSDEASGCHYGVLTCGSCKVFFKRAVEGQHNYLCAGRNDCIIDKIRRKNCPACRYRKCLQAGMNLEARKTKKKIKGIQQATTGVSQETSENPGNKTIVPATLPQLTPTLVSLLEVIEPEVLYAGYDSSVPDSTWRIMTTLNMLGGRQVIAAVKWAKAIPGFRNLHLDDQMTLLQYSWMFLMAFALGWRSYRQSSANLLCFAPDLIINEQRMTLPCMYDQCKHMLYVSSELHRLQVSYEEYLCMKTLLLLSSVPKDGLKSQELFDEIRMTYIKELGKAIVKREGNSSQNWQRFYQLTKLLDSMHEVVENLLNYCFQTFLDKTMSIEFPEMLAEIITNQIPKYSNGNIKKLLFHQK
Experiment: Transrepression Assay (GITAR), TNFα-β-lactamase reporter in U937 cells
Type: cell-based
Conditions: inflection point (IP), TNFα promoter β-lactamase reporter, PMA/LPS
pEC50: −log10 of the molar value.
Everything with pEC50 lower than 7 is F; everything else, including exactly 7, is T.

MOLECULE	ASSIGNED CLASS
Cc1ccc(C(O)C[C@]2(CO)CCC3=Cc4c(cnn4-c4ccc(F)cc4)C[C@@]32C)nc1 (some centres unmarked)	T
C[C@]12Cc3cnn(-c4ccccc4)c3C=C1CC[C@@]2(CO)CC(O)c1cccnc1 (single isomer, unassigned) [Example 29a]	F
C[C@]12Cc3cnn(-c4ccc(F)cc4)c3C=C1CC[C@@]2(CO)CC1OC(=O)c2ccccc21 (single isomer, unassigned) [Example 12b]	T
C[C@]12Cc3cnn(-c4cccc(F)c4)c3C=C1CC[C@@]2(CO)CC(O)c1cccnc1 (single isomer, unassigned) [Example 27a]	F
C[C@]12Cc3cnn(-c4ccc(F)cc4)c3C=C1CC[C@@]2(CO)CC(O)c1cc(F)cc(F)c1 (some centres unmarked)	T
C[C@]12Cc3cnn(-c4ccc(F)cc4)c3C=C1CC[C@@]2(CO)CC(O)c1cc(F)cc(Cl)c1 (single isomer, unassigned) [Example 6a]	T
C[C@]12Cc3cnn(-c4ccc(F)cc4)c3C=C1CC[C@@]2(CO)CC(O)c1ccccc1F (some centres unmarked)	T
C[C@]12Cc3cnn(-c4ccc(F)cc4)c3C=C1CC[C@@]2(CO)CC(O)c1ccc(F)cn1 (single isomer, unassigned) [Example 22a]	T
C[C@]12Cc3cnn(-c4cccc(F)c4)c3C=C1CC[C@@]2(CO)CC(O)c1ccccn1 (single isomer, unassigned) [Example 19a]	T
C[C@]12Cc3cnn(-c4cccc(F)c4)c3C=C1CC[C@@]2(CO)CC(O)c1cccnc1 (single isomer, unassigned) [Example 27b]	F
C[C@]12Cc3cnn(-c4ccc(F)cc4)c3C=C1CC[C@@]2(CO)CC(O)c1ccc(F)cn1 (single isomer, unassigned) [Example 22b]	T
C[C@]12Cc3cnn(-c4ccc(F)cc4)c3C=C1CC[C@@]2(CO)CC1OC(=O)c2ccccc21 (some centres unmarked) [Example 11]	F
C[C@]12Cc3cnn(-c4ccc(F)cc4)c3C=C1CC[C@@]2(CO)CC(O)c1ncccc1F (single isomer, unassigned) [Example 10a]	T
CC(O)(C[C@]1(CO)CCC2=Cc3c(cnn3-c3ccc(F)cc3)C[C@@]21C)c1cccnc1 (single isomer, unassigned) [Example 25a]	F
C[C@]12Cc3cnn(-c4ccc(F)cc4)c3C=C1CC[C@@]2(CO)CC(O)c1cccc(Cl)c1 (some centres unmarked)	T
COc1cccnc1C(O)C[C@]1(CO)CCC2=Cc3c(cnn3-c3ccc(F)cc3)C[C@@]21C (single isomer, unassigned) [Example 21b]	T
CC(C)C(O)C[C@]1(CO)CCC2=Cc3c(cnn3-c3ccc(F)cc3)C[C@@]21C (single isomer, unassigned) [Example 14b]	F
C[C@]12Cc3cnn(-c4ccc(F)cc4)c3C=C1CC[C@@]2(CO)CC(O)c1ccncc1 (single isomer, unassigned) [Example 17b]	T
